Cited source: patent US7511144B2

# tgt: TACE (Homo sapiens, UniProt P78536)
# Construct: made in house; host or cells: mammalian cells or insect cells
# Sequence (P78536 215-824): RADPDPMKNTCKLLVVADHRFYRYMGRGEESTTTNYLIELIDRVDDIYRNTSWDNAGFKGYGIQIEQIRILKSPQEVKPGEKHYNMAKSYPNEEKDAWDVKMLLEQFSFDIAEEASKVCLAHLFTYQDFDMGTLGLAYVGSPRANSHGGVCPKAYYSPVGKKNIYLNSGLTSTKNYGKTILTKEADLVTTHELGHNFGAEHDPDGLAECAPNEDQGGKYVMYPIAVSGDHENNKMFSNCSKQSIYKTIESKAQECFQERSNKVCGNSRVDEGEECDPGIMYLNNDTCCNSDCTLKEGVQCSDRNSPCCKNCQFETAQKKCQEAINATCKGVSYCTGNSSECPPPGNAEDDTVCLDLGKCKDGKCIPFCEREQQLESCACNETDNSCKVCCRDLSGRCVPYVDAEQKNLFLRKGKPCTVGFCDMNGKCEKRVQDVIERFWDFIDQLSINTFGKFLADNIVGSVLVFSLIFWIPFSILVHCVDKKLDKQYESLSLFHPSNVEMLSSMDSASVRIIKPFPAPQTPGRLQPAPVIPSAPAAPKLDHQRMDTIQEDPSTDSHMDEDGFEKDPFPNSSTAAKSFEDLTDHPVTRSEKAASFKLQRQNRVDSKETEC
# assay method text: TACE inhibition experiment (in vitro)
# Type: biochemical
pIC50: −log10 of the molar value.
property label: pIC50

> print(dat)
                                   compound                                  tgt  property.label  quantitative.readout
1  CCC(CC)C(=O)N1CCCC(C(CS(=O)(=O)c2ccc(OCc3cc(C)nc4ccccc34)cc2)N(O)C=O)C1 (stereo not shown)  TACE (Homo sapiens, UniProt P78536)           pIC50                  7.85
2  Cc1cc(COc2ccc(S(=O)(=O)CC(C=C3CCCN(S(C)(=O)=O)CC3)N(O)C=O)cc2)c2ccccc2n1 (stereo not shown)  TACE (Homo sapiens, UniProt P78536)           pIC50                  8.55
3  Cc1cc(COc2ccc(S(=O)(=O)CC(C=C3CCC(=NO)CC3)N(O)C=O)cc2)cc(C)n1 (stereo not shown)  TACE (Homo sapiens, UniProt P78536)           pIC50                  7.30
4  COCc1cc(COc2ccc(S(=O)(=O)CC(C=C3CCC(=O)CC3)N(O)C=O)cc2)cc(C)n1 (stereo not shown)  TACE (Homo sapiens, UniProt P78536)           pIC50                  6.49
5  COCc1cc(COc2ccc(S(=O)(=O)CC(c3ccccc3C)N(O)C=O)cc2)cc(C)n1 (stereo not shown)  TACE (Homo sapiens, UniProt P78536)           pIC50                  6.21
6  Cc1cc(COc2ccc(S(=O)(=O)CC(CC3CCC(=O)CC3)N(O)C=O)cc2)cc(C)n1 (stereo not shown)  TACE (Homo sapiens, UniProt P78536)           pIC50                  6.89
7  Cc1cc(COc2ccc(S(=O)(=O)CC(CN3CCN(S(C)(=O)=O)CC3)N(O)C=O)cc2)c2ccccc2n1 (stereo not shown)  TACE (Homo sapiens, UniProt P78536)           pIC50                  7.92

---

# tgt: Human MMP13 (Homo sapiens, UniProt P45452)
# Construct: purchased Chemicon CC068
# assay method text: MMP13 inhibition experiment
# Type: biochemical
# details: concentration required for 50% inhibition of enzyme activity; read-out: IC50 value MMP-13
pIC50: −log10 of the molar value.
Label True when pIC50 >= 5; otherwise False.

> print(dat)
                                    molecule                                       tgt  category
 1  CCC(CC)C(=O)N1CCC(CC(CS(=O)(=O)c2ccc(OCc3cc(C)nc4ccccc34)cc2)N(O)C=O)CC1 (stereo not drawn)  Human MMP13 (Homo sapiens, UniProt P45452)      True
 2  Cc1ccccc1C(CS(=O)(=O)c1ccc(OCc2ccc3ccccc3n2)cc1)N(O)C=O (stereo not drawn)  Human MMP13 (Homo sapiens, UniProt P45452)     False
 3  Cc1cc(COc2ccc(S(=O)(=O)CC(c3ccccc3C)N(O)C=O)cc2)c2cc(F)ccc2n1 (stereo not drawn)  Human MMP13 (Homo sapiens, UniProt P45452)     False
 4  O=CON=C1CCC(=CC(CS(=O)(=O)c2ccc(OCc3ccc4ccccc4n3)cc2)N(O)C=O)CC1 (stereo not drawn)  Human MMP13 (Homo sapiens, UniProt P45452)     False
 5  COc1cc(C)cc(COc2ccc(S(=O)(=O)CC(C3CCC4(CC3)OCCO4)N(O)C=O)cc2)c1 (stereo not drawn)  Human MMP13 (Homo sapiens, UniProt P45452)      True
 6  Cc1cncc(C(CS(=O)(=O)c2ccc(OCc3cc(C)nc4ccc(C)cc34)cc2)N(O)C=O)c1 (stereo not drawn)  Human MMP13 (Homo sapiens, UniProt P45452)     False
 7  Cc1cc(COc2ccc(S(=O)(=O)CC(C=C3CCC(=NO)CC3)N(O)C=O)cc2)c2ccccc2n1 (stereo not drawn)  Human MMP13 (Homo sapiens, UniProt P45452)     False
 8  Cc1ccc2nc(C)cc(COc3ccc(S(=O)(=O)CC(C=C4CCC(=NO)CC4)N(O)C=O)cc3)c2c1 (stereo not drawn)  Human MMP13 (Homo sapiens, UniProt P45452)     False
 9  COCc1cc(COc2ccc(S(=O)(=O)CC(C=C3CCOCC3)N(O)C=O)cc2)cc(C)n1 (stereo not drawn)  Human MMP13 (Homo sapiens, UniProt P45452)     False
10  Cc1cccc(C(CS(=O)(=O)c2ccc(OCc3cc(C)nc4ccc(F)cc34)cc2)N(O)C=O)n1 (stereo not drawn)  Human MMP13 (Homo sapiens, UniProt P45452)     False
11  Cc1cc(COc2ccc(S(=O)(=O)CC(CC3CCC(=NO)CC3)N(O)C=O)cc2)cc(C)n1 (stereo not drawn)  Human MMP13 (Homo sapiens, UniProt P45452)      True
12  C[C@@H]1O[C@@H](CO)CN(S(=O)(=O)c2ccc(OCc3ccc(F)cc3)cc2)[C@H]1C(=O)NO [compound 2, reference compound]  Human MMP13 (Homo sapiens, UniProt P45452)      True
13  Cc1ccc(C(CS(=O)(=O)c2ccc(OCc3cc(C)nc4ccc(F)cc34)cc2)N(O)C=O)cn1 (stereo not drawn)  Human MMP13 (Homo sapiens, UniProt P45452)     False
14  CC(=O)N1CCC(=CC(CS(=O)(=O)c2ccc(OCc3cc(C)nc4ccccc34)cc2)N(O)C=O)CC1 (stereo not drawn)  Human MMP13 (Homo sapiens, UniProt P45452)     False
